# Protocol details: Tigecycline plasma PK and % F after PO enteric-coated capsule in dogs
# Format: in vivo, Beagle dogs
# Test conditions: female, beagle, dog, plasma, po, 30 mg, 30 mg Formulated (500 mg CA, 100 mg LLC) enteric coated capsule, Study 2 (SC430); mean (% CV) excluding animal 5256; read-out: Cmax
# Experimental: Adult beagle dogs weighing approximately 9 to 15 kg were used in the study. […] Room temperature was set to be maintained between approximately 20±5° C. Relative humidity was monitored but not controlled. […] The unknown concentration in dog plasma samples was determined by interpolation of the peak area ratios of analyte:internal standard versus the ratio of their nominal concentrations into the regression line obtained from calibration standards spiked in pooled dog plasma. […]
Property name: Cmax (ng/mL)
Return type: number; implicit unit ng/mL.

Query block: For the molecule shown here, CN(C)c1cc(NC(=O)CNC(C)(C)C)c(O)c2c1C[C@H]1C[C@H]3[C@H](N(C)C)C(O)=C(C(N)=O)C(=O)[C@@]3(O)C(O)=C1C2=O , give the reported Cmax.
Result block: 121

====

# Protocol details: Tigecycline plasma PK and % F after PO enteric-coated capsule in dogs
# Type: in vivo, Beagle dogs
# Test conditions: female, beagle, dog, plasma, po, 15 mg, PO 15 mg enteric-coated capsule with 500 mg CA and 100 mg LLC, SC424; calculated from IV data of SC427; mean; read-out: % F
Property name: bioavailability (%)
Note: unit % is implicit; provide only the numeric part.

Query block: Reported bioavailability, compound CN(C)c1cc(NC(=O)CNC(C)(C)C)c(O)c2c1C[C@H]1C[C@H]3[C@H](N(C)C)C(O)=C(C(N)=O)C(=O)[C@@]3(O)C(O)=C1C2=O : ____
Result block: 12.2

====

# Protocol details: Tigecycline plasma PK and % F after PO enteric-coated capsule in dogs
# Assay type: in vivo, Beagle dogs
# Test conditions: female, beagle, dog, plasma, po, 15 mg, Tigecycline Plasma Concentration, 30 min; PO 15 mg unformulated enteric-coated capsule, SC424; individual dogs
Property name: concentration at 30 min
# output: numeric value plus its unit

Query block: Look up concentration at 30 min for this compound: CN(C)c1cc(NC(=O)CNC(C)(C)C)c(O)c2c1C[C@H]1C[C@H]3[C@H](N(C)C)C(O)=C(C(N)=O)C(=O)[C@@]3(O)C(O)=C1C2=O [Tigecycline]
Result block: 0 ng/mL

====

# Protocol details: Tigecycline plasma PK and % F after intraduodenal (ID) injection in anesthetized rats
# Type: in vivo, Sprague-Dawley Rats
# Test conditions: female, Sprague-Dawley, rat, plasma, other: intraduodenal injection, 9 mg/kg, pH 3.5, ID, 400 mM CA (pH 3.5), 26 mM LLC, 9.0 mg/kg (RA853), parent Tigecycline peak only; relative to 12 mg/kg IV; read-out: % F, Mean
Property name: bioavailability (%)
Please respond with the number in % and leave the unit unwritten.

Query block: # lookup: bioavailability of CN(C)c1cc(NC(=O)CNC(C)(C)C)c(O)c2c1C[C@H]1C[C@H]3[C@H](N(C)C)C(O)=C(C(N)=O)C(=O)[C@@]3(O)C(O)=C1C2=O [Tigecycline]
Result block: 21.8

====

# Protocol details: Tigecycline plasma PK and % F after PO enteric-coated capsule in dogs
# Format: in vivo, Beagle dogs
# Test conditions: female, beagle, dog, plasma, po, 45 mg, Tigecycline Plasma Concentration, Time (min) 10.0; PO 45 mg enteric-coated capsule with 500 mg CA and 100 mg LLC, SC430; mean
Property name: concentration at 10 min

Query block: So what does the record say about concentration at 10 min for CN(C)c1cc(NC(=O)CNC(C)(C)C)c(O)c2c1C[C@H]1C[C@H]3[C@H](N(C)C)C(O)=C(C(N)=O)C(=O)[C@@]3(O)C(O)=C1C2=O ?
Result block: 16.8 ng/mL
